Molecular target: T1, B3GNT2 (Homo sapiens, UniProt Q9NY97)
T1 construct: The respective ORFs of candidate genes [CD274 (NM_014143), MCL1 (NM_021960), JUNB (NM_002229), and B3GNT2 (NM_006577)] were synthesized; expressed in transfected cells; host or cells: A375 melanoma cells (lentiviral ORF overexpression)
T1 sequence (Q9NY97 1-397): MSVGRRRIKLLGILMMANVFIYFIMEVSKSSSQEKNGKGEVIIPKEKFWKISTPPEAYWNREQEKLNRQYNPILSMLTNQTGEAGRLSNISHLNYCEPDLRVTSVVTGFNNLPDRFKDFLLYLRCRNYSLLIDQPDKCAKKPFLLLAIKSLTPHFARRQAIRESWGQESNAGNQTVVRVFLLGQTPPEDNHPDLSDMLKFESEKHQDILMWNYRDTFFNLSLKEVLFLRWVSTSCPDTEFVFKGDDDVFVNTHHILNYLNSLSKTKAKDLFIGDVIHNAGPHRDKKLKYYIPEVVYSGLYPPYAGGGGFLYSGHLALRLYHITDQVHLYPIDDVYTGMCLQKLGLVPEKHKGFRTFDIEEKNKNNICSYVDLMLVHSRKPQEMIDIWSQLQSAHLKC
Experiment: Co-IP of FLAG-tagged B3GNT2 followed by mass spectrometry
Type: cell-based
Conditions: Co-IP followed by mass spectrometry of B3GNT2; N-term tag, IgG pull-down
endpoint-name: N-term IgG
API doc: respond with a numeric literal and nothing else, no unit.

// solved cases for N-term IgG follow
molecule	endpoint-name	quantitative-readout
C1orf68 (protein) MCDQQKQPQFPPSCVKGSGLGAGQGSNGASVKCPVPCQTQTVCVTGPAPCPTQTYVKYQVPCQTQTYVKCPAPCQRTYVKYPTPCQTYVKCPAPCQTTYVKCPTPCQTYVKCPAPCQMTYIKSPAPCQTQTCYVQGASPCQSYYVQAPASGSTSQYCVTDPCSAPCSTSYCCLAPRTFGVSPLRRWIQRPQNCNTGSSGCCENSGSSGCCGSGGCGCSCGCGSSGCCCLGIIPMRSRGPACCDHEDDCCC	N-term IgG	0
PURA (protein) ADRDSGSEQGGAALGSGGSLGHPGSGSGSGGGGGGGGGGGGSGGGGGGAPGGLQHETQELASKRVDIQNKRFYLDVKQNAKGRFLKIAEVGAGGNKSRLTLSMSVAVEFRDYLGDFIEHYAQLGPSQPPDLAQAQDEPRRALKSEFLVRENRKYYMDLKENQRGRFLRIRQTVNRGPGLGSTQGQTIALPAQGLIEFRDALAKLIDDYGVEEEPAELPEGTSLTVDNKRFFFDVGSNKYGVFMRVSEVKPTYRNSITVPYKVWAKFGHTFCKYSEEMKKIQEKQREKRAACEQLHQQQQQQQEETAAATLLLQGEEEGEED	N-term IgG	2
TMEM59 (protein) EAFDSVLGDTASCHRACQLTYPLHTYPKEEELYACQRGCRLFSICQFVDDGIDLNRTKLECESACTEAYSQSDEQYACHLGCQNQLPFAELRQEQLMSLMPKMHLLFPLTLVRSFWSDMMDSAQSFITSSWTFYLQADDGKIVIFQSKPEIQYAPHLEQEPTNLRESSLSKMSYLQMRNSQAHRNFLEDGESDGFLRCLSLNSGWILTTTLVLSVMVLLWICCATVATAVEQYVPSEKLSIYGDLEFMNEQKLNRYPASSLVVVRSKTEDHEEAGPLPTKVNLAHSEI	N-term IgG	0
S100A7 (protein) SNTQAERSIIGMIDMFHKYTRRDDKIEKPSLLTMMKENFPNFLSACDKKGTNYLADVFEKKDKNEDKKIDFSEFLSLLGDIATDYHKQSHGAAPCSGGSQ	N-term IgG	2

--- query ---
[Q] For the molecule shown here, CALML5 (protein) AGELTPEEEAQYKKAFSAVDTDGNGTINAQELGAALKATGKNLSEAQLRKLISEVDSDGDGEISFQEFLTAAKKARAGLEDLQVAFRAFDQDGDGHITVDELRRAMAGLGQPLPQEELDAMIREADVDQDGRVNYEEFARMLAQE , give the reported N-term IgG.
[A] 0
